Cited source for all entries: patent US20070244048A1

A collection of binders and their measured EC50 (FLIPR)
# Assay system: T1, human NMUR1 (human, UniProt Q9HB89 1-426)
# T1 sequence (looked up): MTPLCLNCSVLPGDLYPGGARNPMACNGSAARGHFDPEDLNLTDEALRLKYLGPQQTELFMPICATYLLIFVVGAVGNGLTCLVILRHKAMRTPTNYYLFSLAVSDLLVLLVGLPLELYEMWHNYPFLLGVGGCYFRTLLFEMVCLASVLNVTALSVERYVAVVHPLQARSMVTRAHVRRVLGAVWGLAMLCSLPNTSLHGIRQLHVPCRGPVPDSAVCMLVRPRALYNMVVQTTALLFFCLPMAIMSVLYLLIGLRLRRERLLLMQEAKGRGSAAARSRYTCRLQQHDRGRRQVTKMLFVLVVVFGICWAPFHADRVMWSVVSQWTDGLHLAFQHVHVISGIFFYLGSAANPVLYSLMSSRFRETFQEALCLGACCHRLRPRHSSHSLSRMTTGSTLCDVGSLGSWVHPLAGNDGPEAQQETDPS
# Assay method text: cell-based or functional assay
No end group written: not given here. *: point of attachment. Succinimide(1-Et,3-yl) = CCN1C(=O)CC(*)C1=O
Use nM as the unit, but write only the number.

Examples with answers:
Ac-C(Succinimide(1-Et,3-yl))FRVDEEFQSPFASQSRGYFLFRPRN-NH2 [NMU8] ... 10.7
Ac-C(PEG 20 kDa)C(PEG 20 kDa)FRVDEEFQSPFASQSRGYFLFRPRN-NH2 [NMU23] ... 300

### Prompt Query: EC50 (FLIPR); subject: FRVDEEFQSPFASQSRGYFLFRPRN-NH2 (not fully specified (N-terminus)) [NMU1]
### Response 81.4
